experimental_protocol: Antiinflammatory activity in fMLP/cytochalasin B-stimulated human neutrophils assessed as inhibition of superoxide anion generation at 10 ug/ml after 5 mins
Format: functional
measurement_setup: Neutrophil
measurement_label: inhibition at 10 µg/mL (%)
The response must be a number in % with no trailing unit.

CC(=O)OC[C@H](Cc1ccccc1)NC(=O)[C@H](Cc1ccccc1)NC(=O)OCC1c2ccccc2-c2ccccc21; 2.8
CC(=O)OC[C@H](Cc1ccccc1)NC(=O)[C@H](Cc1cn(C(c2ccccc2)(c2ccccc2)c2ccccc2)cn1)NC(=O)OCC1c2ccccc2-c2ccccc21; 9.5
CC(=O)OC[C@@H](Cc1ccccc1)NC(=O)[C@H](Cc1ccc2ccccc2c1)NC(=O)OCC1c2ccccc2-c2ccccc21; 2.1
CC(=O)OC[C@@H](Cc1ccccc1)NC(=O)[C@H](Cc1c[nH]c2ccccc12)NC(=O)OCC1c2ccccc2-c2ccccc21; 18.6
CC(=O)OC[C@@H](Cc1ccccc1)NC(=O)[C@@H](NC(=O)OCC1c2ccccc2-c2ccccc21)C(C)C; -2.3

I would be grateful if you could share the reported inhibition at 10 µg/mL for CC[C@H](C)[C@H](NC(=O)OCC1c2ccccc2-c2ccccc21)C(=O)N[C@H](COC(C)=O)Cc1ccccc1 .
2.2

I would be grateful if you could share the reported inhibition at 10 µg/mL for CC(C)[C@H](NC(=O)OCC1c2ccccc2-c2ccccc21)C(=O)O .
29.4

----------
Listing: pIC50 of selected compounds
experimental_protocol: Antiinflammatory activity in fMLP/cytochalasin B-stimulated human neutrophils assessed as inhibition of elastase release after 5 mins
Type: functional, cell-based
measurement_setup: Neutrophil
Friendly reminder that pIC50 comes from taking -log10 of the concentration in mol/L.

Use the examples below as a reference point.
CC(=O)OC[C@H](Cc1ccccc1)NC(=O)[C@H](Cc1ccc(OC(C)(C)C)cc1)NC(=O)OCC1c2ccccc2-c2ccccc21; 6.10
CC(=O)OC[C@@H](Cc1ccccc1)NC(=O)[C@H](Cc1ccc2ccccc2c1)NC(=O)OCC1c2ccccc2-c2ccccc21; 4.84
O=C(N[C@@H](Cc1ccc(O)cc1)C(=O)O)OCC1c2ccccc2-c2ccccc21; 5.54

I would be grateful if you could share the reported pIC50 for CC(C)(C)Oc1ccc(C[C@H](NC(=O)OCC2c3ccccc3-c3ccccc32)C(=O)O)cc1 .
5.25

I would be grateful if you could share the reported pIC50 for CC(=O)OC[C@H](Cc1ccccc1)NC(=O)[C@H](Cc1c[nH]c2ccccc12)NC(=O)OCC1c2ccccc2-c2ccccc21 .
5.26

I would be grateful if you could share the reported pIC50 for CC(=O)OC[C@@H](Cc1ccccc1)NC(=O)[C@@H](N)Cc1ccc(O)cc1 .
5.43

I would be grateful if you could share the reported pIC50 for CC(=O)OC[C@@H](Cc1ccccc1)NC(=O)[C@H](Cc1ccccc1)NC(=O)OCC1c2ccccc2-c2ccccc21 .
4.89

I would be grateful if you could share the reported pIC50 for O=C(N[C@@H](Cc1ccccc1)C(=O)O)OCC1c2ccccc2-c2ccccc21 .
4.85

I would be grateful if you could share the reported pIC50 for CC(=O)OC[C@@H](Cc1ccccc1)NC(=O)[C@H](Cc1c[nH]c2ccccc12)NC(=O)OCC1c2ccccc2-c2ccccc21 .
5.77

I would be grateful if you could share the reported pIC50 for CC(=O)OC[C@@H](Cc1ccccc1)NC(=O)[C@H](Cc1ccc(O)cc1)NC(=O)OCC1c2ccccc2-c2ccccc21 .
5.19
